assay: In vivo loss of dye from labeled, reinjected erythrocytes; conditions: rabbit, iv
observed-property: half-life (days)

[1] CCCCCCCCCCCCCCN1C(=CC=CC2=[N+](CCCCCCCCCCCCCC)c3ccccc3C2(C)C)C(C)(C)c2ccccc21
[2] CCCCCCCCCCCCCCCCCCCCCCN1C(=CC=CC2=[N+](CCCCCCCCCCCCCC)c3ccccc3C2(C)C)C(C)(C)c2ccccc21
[3] CCCCCCCCCCCCCCCCN1C(=CC=CC2=[N+](CCCCCCCCCCCCCCCC)c3ccccc3C2(C)C)C(C)(C)c2ccccc21
In ascending order of recorded half-life, list the compounds from the set above. Write the labels out in the order the request specifies.
1, 3, 2
(1: 36 days, 3: 58 days, 2: 130 days)
